# TESTED ON: Farnesyl-protein transferase from bovine brain (partially purified enzyme preparation) (Bos taurus, UniProt P29702+P49355)
# Construct: the indicated compounds were incubated with this partially purified enzyme preparation; from tissue; host or cells: bovine brain; chromatographed on DEAE-Sephacel and N-octyl agarose
# TEST: Competition of Ras farnesylation by polyisoprenoids and peptides (Hepes-buffered assay, immunoprecipitation and nitrocellulose filtration)
# Type: biochemical
# CONDITION DESCRIPTION: 0.5 µM [3H]FPP and 1 µM Ras
ENDPOINT: competition of the farnesylation reaction (in words)

CC(C)=CCC/C(C)=C/CC/C(C)=C/CC/C(C)=C/CO :: inactive
CC(C)=CCCC(C)=CCCC(C)=CCO :: inactive
CC(C)=CCC/C(C)=C/CC/C(C)=C/COP(=O)(O)OP(=O)(O)O :: potently inhibited
CC(C)=CCC/C(C)=C/CC/C(C)=C/CC/C(C)=C/COP(=O)(O)OP(=O)(O)O :: potently inhibited
